Biological target: D(1A) dopamine receptor (Homo sapiens)
Test: HTS Assay for Allosteric Agonists of the Human D1 Dopamine Receptor: Primary Screen for Antagonists (AID 488983);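 note: calcium flux response to an EC80 dopamine challenge measured with no-wash dye; nearly all actives have a fitted effect of over 65% in size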
Settings: D1 receptor cell assay, antagonist mode, qHTS titration; series mostly up to 41.8 µM
Inconclusive results are not listed. Calls of active or inactive are those of the source. Calls come from the whole dose curve; as a rule, active = well fitted inhibition curve with a large enough effect; inconclusive = small, poorly fitted or top-dose-only effect, or effect the other way; inactive = flat fitted curve, though single readings scatter.
Mark one answer only. Choices: T = active, F = inactive

Recorded test outcome, item CCOC(=O)C(C)Oc1cccc2c(=O)n(CC(=O)Nc3ccc4c(c3)OCCO4)ccc12 (stereo not given)
F

Recorded test outcome, item COc1ccccc1N1CCN(CCN(C(=O)C2CCCCC2)c2ccccn2)CC1
F

Recorded test outcome, item CC1(C)C(=O)N(CCN2CCC(C(=O)c3ccc(F)cc3)CC2)c2ccccc21
T

Recorded test outcome, item NCCCCNCCCN
F

Recorded test outcome, item O=c1ccc2ccc(O)c(O)c2o1
F

====

Assay: qHTS of pediatric cancer cell lines to identify multiple opportunities for drug repurposing: Primary screen for SJ-GBM2 cells (AID 1347091)
Conditions: SJ-GBM2 viability, CellTiter-Glo luminescence, 48 h; series mostly up to 46 µM
Inconclusive results are not listed. Calls of active or inactive are those of the source. Calls follow the shape of the dose curve; as a rule, active = well fitted cell-killing curve with a large enough effect; inconclusive = small, poorly fitted or top-dose-only effect; inactive = no such curve, though single readings can be large or run the other way.
Mark one answer only. Choices: Yes (active), No (inactive)

Recorded test outcome, item O=C(O)c1cccnc1Nc1cccc(C(F)(F)F)c1
No

Recorded test outcome, item C[C@@H](c1ncncc1F)[C@](O)(Cn1cncn1)c1ccc(F)cc1F
No

Recorded test outcome, item CCOC(=O)C1=C(O)C(=O)N(Cc2ccccc2)C1
No

Recorded test outcome, item COc1c2occc2cc2ccc(=O)oc12
No

Recorded test outcome, item CC(C)Oc1ccc2c(=O)c(-c3ccccc3)coc2c1
No

Recorded test outcome, item O=C(O)c1cn(-c2ccc(F)cc2)c2cc(N3CCNCC3)c(F)cc2c1=O
No

Recorded test outcome, item COCCCN1CCC(NC(=O)c2cc(Cl)c(N)c3c2OCC3)CC1
No

Recorded test outcome, item Cc1ccc(C)c(OCCCC(C)(C)C(=O)O)c1
No

Recorded test outcome, item Nc1ccc(S(N)(=O)=O)cc1
No

Recorded test outcome, item CCOc1cc(CC(=O)N[C@@H](CC(C)C)c2ccccc2N2CCCCC2)ccc1C(=O)O
No

Recorded test outcome, item O=C(OC1C[C@H]2CC[C@@H](C1)[N+]21CCCC1)C(O)(c1ccccc1)c1ccccc1 (stereo partly specified)
No

Recorded test outcome, item COc1ccc2cc([C@H](C)C(=O)O)ccc2c1
No

Recorded test outcome, item O=c1cc(N2CCOCC2)oc2c(-c3ccccc3)cccc12
Yes

Recorded test outcome, item CCOC(=O)C(C)Oc1cccc2c(=O)n(CC(=O)Nc3ccc4c(c3)OCCO4)ccc12 (stereo unspecified)
No

Recorded test outcome, item COc1cc2c(N3CCN(C(=O)Nc4ccc(OC(C)C)cc4)CC3)ncnc2cc1OCCCN1CCCCC1
No

Recorded test outcome, item C[C@@H](N)C1CCC(C(=O)Nc2ccncc2)CC1 (stereo partly specified)
Yes

Recorded test outcome, item Cc1nc(-c2ccc(OCC(C)C)c(C#N)c2)sc1C(=O)O
No

Recorded test outcome, item CC1=C(C(=O)O)N2C(=O)[C@@H](NC(=O)[C@H](N)C3=CCC=CC3)[C@H]2SC1
No

Recorded test outcome, item COC(=O)C1=C(C)NC(C)=C(C(=O)OC(C)C)C1c1cccc2nonc12 (stereo unspecified)
No

Recorded test outcome, item COc1ccccc1N1CCN(CCN(C(=O)C2CCCCC2)c2ccccn2)CC1
No

Recorded test outcome, item Cc1cc(O)c2c(c1)C(=O)c1cc(O)cc(O)c1C2=O
No

Recorded test outcome, item O=C(CS(=O)Cc1ccco1)NCC=CCOc1cc(CN2CCCCC2)ccn1 (stereo unspecified)
No

Recorded test outcome, item COc1cc(OC)c(C(=O)CCCN2CCCC2)c(OC)c1
No

Recorded test outcome, item COc1c(O)cc2c(c1O)[C@@H]1O[C@H](CO)[C@@H](O)[C@H](O)[C@H]1OC2=O
No

Recorded test outcome, item c1cnc2cc3c(cc2n1)C1CNCC3C1
No

Recorded test outcome, item CCC[C@@H]1C[C@@H](C(=O)N[C@@H]([C@H]2O[C@H](SC)[C@H](O)[C@@H](O)[C@H]2O)[C@@H](C)O)N(C)C1
No

Recorded test outcome, item CC(C)(S)[C@@H](N)C(=O)O
No

Recorded test outcome, item NNc1nncc2ccccc12
No

Recorded test outcome, item O=C(O)c1cccc(-c2noc(-c3ccccc3F)n2)c1
No

Recorded test outcome, item C[C@H](Cn1cnc2c(N)ncnc21)OCP(=O)(O)O
No

Recorded test outcome, item Clc1ccc(C(Cn2ccnc2)OCc2ccc(Sc3ccccc3)cc2)c(Cl)c1 (stereo unspecified)
No

Recorded test outcome, item Oc1ccc(OCc2ccccc2)cc1
No

Recorded test outcome, item CC(C)[N+]1(C)[C@@H]2CC[C@H]1CC(OC(=O)C(CO)c1ccccc1)C2 (stereo partly specified)
No

Recorded test outcome, item CCCOc1ccc2nc(NC(=O)OC)[nH]c2c1
Yes

Recorded test outcome, item Nc1nc(N)c(N=O)c(OCC2CCCCC2)n1
Yes

Recorded test outcome, item O=Nc1c(-c2c(O)[nH]c3cc(Br)ccc23)[nH]c2ccccc12
Yes

Recorded test outcome, item CS(=O)(=O)OCCCCOS(C)(=O)=O
No

Recorded test outcome, item O=c1c(O)c(-c2ccc(O)cc2O)oc2cc(O)cc(O)c12
No

Recorded test outcome, item C=CCc1cc(OC)c(O)c(C(=O)NCCO)c1
No

Recorded test outcome, item O=C1c2c(O)cc(O)cc2OC(c2ccc(O)c(O)c2)C1O (stereo unspecified)
No

Recorded test outcome, item CCCCC(CC)COC(=O)C(C#N)=C(c1ccccc1)c1ccccc1 (stereo unspecified)
No

Recorded test outcome, item CCN(CC)CCOc1ccc(Nc2ncc3cc(-c4c(Cl)cccc4Cl)c(=O)n(C)c3n2)cc1
Yes

Recorded test outcome, item Cc1cc2cc3c(C)cc(=O)oc3c(C)c2o1
No

Recorded test outcome, item Cc1nccn1CC1CCc2c(c3ccccc3n2C)C1=O (stereo unspecified)
No

Recorded test outcome, item C[C@]12CCC(=O)C=C1CC[C@@H]1[C@H]2[C@@H](O)C[C@@]2(C)[C@H]1CC[C@]2(O)C(=O)CO
No

Recorded test outcome, item CC(C)c1ccc2oc3nc(N)c(C(=O)O)cc3c(=O)c2c1
No

Cited source: PubChem BioAssay (NCATS)
